Target: actKR (actinorhodin type II polyketide ketoreductase) (Streptomyces coelicolor, UniProt P16544, R65A)
Assay: NADPH fluorescence titration
observation type: pKd
Give bare numbers, as −log10 of the molar value.

Asked: Can you look up the measured pKd of `NC(=O)C1=CN([C@@H]2O[C@H](COP(=O)(O)OP(=O)(O)OC[C@H]3O[C@@H](n4cnc5c(N)ncnc54)[C@H](OP(=O)(O)O)[C@@H]3O)[C@@H](O)[C@H]2O)C=CC1` for me?
Given back: 5.74
